- test-summary: logP
- Type: physicochemical
- measurement-conditions: intermediate amines of formula (II)
assay-metric: logP

Before answering, review these 4 worked examples.
[
  {
    "molecule": "c1ccc2c(c1)SCCC2NC1CC1 (racemic)",
    "assay-metric": "logP",
    "observed-measurement": 0.67
  },
  {
    "molecule": "CC1(C)CCC(NC2CC2)c2ccccc21 (racemic)",
    "assay-metric": "logP",
    "observed-measurement": 1.26
  },
  {
    "molecule": "CC1Cc2ccccc2C1NC1CC1 (stereo not shown)",
    "assay-metric": "logP",
    "observed-measurement": 0.81
  },
  {
    "molecule": "CC1(C)CC(NC2CC2)c2ccccc21 (stereo not shown)",
    "assay-metric": "logP",
    "observed-measurement": 1.15
  }
]

a. Clc1ccc2c(c1)C(NC1CC1)CCO2 (stereo not shown)
b. COc1cc2c(cc1OC)C(NC1CC1)C(C)(C)CO2 (stereo not shown)
c. c1ccc2c(c1)OCCC2NC1CC1 (stereo not shown)
# sort list by recorded logP, greatest to least A complete answer lists every label in the requested sequence.
b, a, c
